target: D(2) dopamine receptor (Homo sapiens); assay: Displacement of [3H]methyl-spiperone from human recombinant dopamine D2 receptor expressed in HEK293 cells
Sequence (P14416 whole entry): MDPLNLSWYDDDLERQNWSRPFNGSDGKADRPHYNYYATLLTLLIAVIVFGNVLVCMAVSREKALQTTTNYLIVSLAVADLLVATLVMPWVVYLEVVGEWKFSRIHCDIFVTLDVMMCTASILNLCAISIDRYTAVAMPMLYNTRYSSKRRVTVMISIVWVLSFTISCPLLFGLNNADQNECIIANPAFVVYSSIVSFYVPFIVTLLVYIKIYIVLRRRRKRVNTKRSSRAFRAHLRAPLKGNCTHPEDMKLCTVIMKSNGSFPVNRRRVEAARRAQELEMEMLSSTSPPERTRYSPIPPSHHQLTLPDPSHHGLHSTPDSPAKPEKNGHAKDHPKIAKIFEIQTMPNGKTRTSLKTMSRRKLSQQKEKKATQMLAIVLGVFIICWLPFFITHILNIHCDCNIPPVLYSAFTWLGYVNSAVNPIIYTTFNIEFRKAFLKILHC
property measured: Ki (µM)

smiles entry	test system	property measured	readout unit	measured value
O=C(NCCN1CCN(c2ccc(Cl)cc2)CC1)c1ccccn1	D(2) dopamine receptor (Homo sapiens)	Ki	µM	2.3
O=C(NCCN1CCN(c2ccc(Cl)c(Cl)c2)CC1)c1ccccn1	D(2) dopamine receptor (Homo sapiens)	Ki	µM	0.25

----------
target: 5-hydroxytryptamine receptor 2A (Rattus norvegicus) (UniProt P14842); test: Antagonist activity at 5-HT2A receptor in Sprague-Dawley rat ielum assessed as reduction in 5-HT-evoked contraction relative to control; format: functional
Sequence (P14842 whole entry): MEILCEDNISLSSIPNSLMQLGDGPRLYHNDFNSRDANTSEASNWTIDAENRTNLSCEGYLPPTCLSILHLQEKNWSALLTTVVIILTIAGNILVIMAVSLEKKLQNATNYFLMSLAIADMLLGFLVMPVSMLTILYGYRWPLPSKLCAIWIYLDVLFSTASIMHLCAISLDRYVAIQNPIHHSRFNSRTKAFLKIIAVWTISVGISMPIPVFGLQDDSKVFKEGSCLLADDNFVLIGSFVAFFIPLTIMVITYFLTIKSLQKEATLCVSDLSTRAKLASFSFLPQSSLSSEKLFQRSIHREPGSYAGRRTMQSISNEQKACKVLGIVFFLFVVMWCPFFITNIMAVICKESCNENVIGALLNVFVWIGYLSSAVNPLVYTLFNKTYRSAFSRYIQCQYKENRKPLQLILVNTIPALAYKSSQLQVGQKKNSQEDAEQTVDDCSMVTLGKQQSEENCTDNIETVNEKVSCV
Respond with Fulfilled for Emax values of 50% and above, Not fulfilled for values below.

smiles entry	answer label
O=C(NCCCN1CCN(Cc2ccc3c(c2)OCO3)CC1)c1ccccn1	Fulfilled
O=C(NCCCN1CCN(c2ncccn2)CC1)c1ccccn1	Not fulfilled
O=C(NCCCN1CCN(C(c2ccc(F)cc2)c2ccc(F)cc2)CC1)c1ccccn1	Fulfilled
O=C(NCCCN1CCN(c2ccc(Cl)c(Cl)c2)CC1)c1ccccn1	Not fulfilled
O=C(NCCN1CCN(c2cccc(C(F)(F)F)c2)CC1)c1ccccn1	Not fulfilled
COc1ccccc1N1CCN(CCNC(=O)c2ccccn2)CC1	Not fulfilled
O=C(NCCCN1CCN(C(=O)c2ccco2)CC1)c1ccccn1	Fulfilled

----------
Target: 5-hydroxytryptamine receptor 2C (Rattus norvegicus)
Sequence (P08909 whole entry): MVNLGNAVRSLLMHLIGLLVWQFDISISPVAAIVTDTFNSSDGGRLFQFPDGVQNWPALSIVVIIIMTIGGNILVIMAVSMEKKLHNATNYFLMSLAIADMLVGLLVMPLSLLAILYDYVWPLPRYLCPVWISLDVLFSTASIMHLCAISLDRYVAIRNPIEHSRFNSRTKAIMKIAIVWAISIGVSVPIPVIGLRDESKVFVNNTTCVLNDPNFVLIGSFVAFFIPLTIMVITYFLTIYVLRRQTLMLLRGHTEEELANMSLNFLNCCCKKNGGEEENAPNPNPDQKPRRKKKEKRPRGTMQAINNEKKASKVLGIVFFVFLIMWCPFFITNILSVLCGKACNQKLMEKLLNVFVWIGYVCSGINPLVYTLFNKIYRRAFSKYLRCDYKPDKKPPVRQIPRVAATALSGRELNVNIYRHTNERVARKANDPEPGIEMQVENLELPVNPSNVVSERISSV
pKi: −log10 of the molar value.
Listed next: entries and their corresponding pKi.

smiles entry	pKi
O=C(NCCN1CCN(c2ccccc2F)CC1)c1ccccn1	< 5.00
O=C(NCCCN1CCN(c2ccccc2F)CC1)c1ccccn1	< 5.00
O=C(NCCCN1CCN(c2cccc(C(F)(F)F)c2)CC1)c1ccccn1	< 5.00
O=C(NCCN1CCN(c2ccc(F)cc2)CC1)c1ccccn1	7.10
COc1ccc(N2CCN(CCCNC(=O)c3ccccn3)CC2)cc1	< 5.00
O=C(NCCN1CCN(c2cccc3ccccc23)CC1)c1ccccn1	6.94
O=C(NCCCN1CCN(c2ccc(Cl)c(Cl)c2)CC1)c1ccccn1	8.02
O=C(NCCN1CCN(c2ncccn2)CC1)c1ccccn1	< 5.00
O=C(NCCN1CCN(c2cccc(Cl)c2)CC1)c1ccccn1	7.04
O=C(NCCN1CCN(C(=O)c2ccco2)CC1)c1ccccn1	< 5.00
O=C(NCCN1CCN(c2ccc(Cl)c(Cl)c2)CC1)c1ccccn1	< 5.00
